test system: MKN-45; assay: Cytotoxicity against human MKN45 cells after 48 hrs by MTT assay; format: functional, cell-based; settings: MKN-45, 48 h

{"columns": ["COMPOUND", "IC50"],
 "data": [
  ["COc1cc(-c2nnc(SCc3ccc(F)cc3)n2/N=C/c2ccccc2)cc(OC)c1OC", "> 200 µM"],
  ["CCOC(=O)CSc1nnc(-c2cc(OC)c(OC)c(OC)c2)n1/N=C/c1ccc(OC)cc1OC", "> 200 µM"],
  ["COc1ccc(/C=N/n2c(SC)nnc2-c2cc(OC)c(OC)c(OC)c2)c(OC)c1", "> 200 µM"],
  ["COc1cc(-c2nnc3n2NC(CC(=O)c2ccc(C)cc2)(c2ccccc2)S3)cc(OC)c1OC (stereo not drawn)", "7.47 µM"],
  ["COc1cc(-c2nnc(SC)n2/N=C/c2ccccc2)cc(OC)c1OC", "28.5 µM"],
  ["COc1ccc(C2(CC(=O)c3ccc(C)cc3)Nn3c(nnc3-c3cc(OC)c(OC)c(OC)c3)S2)c(OC)c1 (stereo not drawn)", "13.8 µM"],
  ["COc1ccc(/C=N/n2c(SCc3ccc(F)cc3)nnc2-c2cc(OC)c(OC)c(OC)c2)c(OC)c1", "> 200 µM"],
  ["COc1cc(-c2nnc(SCc3ccccc3Cl)n2/N=C/c2ccccc2)cc(OC)c1OC", "> 200 µM"],
  ["COc1cc(-c2nnc(SCc3ccccc3)n2/N=C/c2ccccc2)cc(OC)c1OC", "> 200 µM"],
  ["COc1ccc(/C=N/n2c(SCc3ccccc3Cl)nnc2-c2cc(OC)c(OC)c(OC)c2)c(OC)c1", "> 200 µM"],
  ["CCOC(=O)CC1(c2ccccc2)Nn2c(nnc2-c2cc(OC)c(OC)c(OC)c2)S1 (stereo not drawn)", "> 200 µM"],
  ["COc1cccc2c1C(=O)c1c(O)c3c(c(O)c1C2=O)C[C@@](O)(C(=O)CO)C[C@@H]3O[C@H]1C[C@H](N)[C@H](O)[C@H](C)O1", "0.168 µM"],
  ["COc1ccc(/C=N/n2c(SCc3ccccc3)nnc2-c2cc(OC)c(OC)c(OC)c2)c(OC)c1", "49 µM"]
]}

The values you see were collected from ChEMBL document CHEMBL2040825.
